Tested on: Saccharomyces cerevisiae
Assay: protein stability index of tFT-peptide fusion (C-terminal peptide) (PSI (0-1 scale)); higher = more stable (slower turnover)
Settings: genetic background: wild type; temperature: 30 C
# reported protein stability index; entries follow
measure_name: protein stability index

residue_codes: VWLFAESFCGCV
measurement: 0.597
//
residue_codes: GNKMYRSREGNC
measurement: 0.671
//
residue_codes: RAGALYLGICDT
measurement: 0.738
//
residue_codes: GPPPPSPRPTRR
measurement: 0.723
//
residue_codes: CGLLWFYSFFLF
measurement: 0.38
//
residue_codes: PLPPPPAPPLSP
measurement: 0.67
//
residue_codes: GFETGLGKGAGW
measurement: 0.714
//
residue_codes: CKTYPTKALVVE
measurement: 0.693
//
residue_codes: WYIEYLNYTTEQ
measurement: 0.697
//
residue_codes: AASPPPRISAWL
measurement: 0.746

----------
Test system: Saccharomyces cerevisiae
Experiment: protein stability index of tFT-peptide fusion (C-terminal peptide) (PSI (0-1 scale)); higher = more stable (slower turnover)
Conditions: genetic background: wild type; temperature: 30 C
# reported protein stability index; entries follow

residue_codes: ACIFNVATASIP [YGR270C-A C-terminal 12 aa]
target: Saccharomyces cerevisiae
protein stability index: 0.692

residue_codes: LHTEREKKKKKF [YKR040C C-terminal 12 aa]
target: Saccharomyces cerevisiae
protein stability index: 0.682

residue_codes: ELFTIISRIIED [TSL1 C-terminal 12 aa]
target: Saccharomyces cerevisiae
protein stability index: 0.711

residue_codes: ESTGHVDFGQNR [OTU1 C-terminal 12 aa]
target: Saccharomyces cerevisiae
protein stability index: 0.703

residue_codes: GKTDYLDTKLIF [EKI1 C-terminal 12 aa]
target: Saccharomyces cerevisiae
protein stability index: 0.726

residue_codes: ELKKRFDALRRK [IST1 C-terminal 12 aa]
target: Saccharomyces cerevisiae
protein stability index: 0.647

residue_codes: KTRWQRVWDVLS [ALP1 C-terminal 12 aa]
target: Saccharomyces cerevisiae
protein stability index: 0.207

residue_codes: HTRQGNITQTKY [YKL100W-A C-terminal 12 aa]
target: Saccharomyces cerevisiae
protein stability index: 0.692

residue_codes: MSSFLSKKENNN [SNT1 C-terminal 12 aa]
target: Saccharomyces cerevisiae
protein stability index: 0.662

residue_codes: IDFLVEEATLNE [YAP3 C-terminal 12 aa]
target: Saccharomyces cerevisiae
protein stability index: 0.673

residue_codes: SPELHTYETIYD [ROY1 C-terminal 12 aa]
target: Saccharomyces cerevisiae
protein stability index: 0.769

residue_codes: SFWPHVAGELEY [INM2 C-terminal 12 aa]
target: Saccharomyces cerevisiae
protein stability index: 0.693

residue_codes: SFGIGSKVFSSM [YHR063W-A C-terminal 12 aa]
target: Saccharomyces cerevisiae
protein stability index: 0.695

residue_codes: NNASEDDRGIRV [STB2 C-terminal 12 aa]
target: Saccharomyces cerevisiae
protein stability index: 0.685

residue_codes: GTKVDDDKKNKS [SPP2 C-terminal 12 aa]
target: Saccharomyces cerevisiae
protein stability index: 0.663

residue_codes: LGLSLRRGTEIW [MRP8 C-terminal 12 aa]
target: Saccharomyces cerevisiae
protein stability index: 0.722

residue_codes: TFELVMRFLGEE [YMC2 C-terminal 12 aa]
target: Saccharomyces cerevisiae
protein stability index: 0.669

residue_codes: LLYHMDLLLKVK [VID28 C-terminal 12 aa]
target: Saccharomyces cerevisiae
protein stability index: 0.365

residue_codes: RITRLSSMTYTY [YPS5 C-terminal 12 aa]
target: Saccharomyces cerevisiae
protein stability index: 0.69

residue_codes: RRLEMEIANLQE [SPC34 C-terminal 12 aa]
target: Saccharomyces cerevisiae
protein stability index: 0.706

residue_codes: GPLLDYLSSDED [CWC2 C-terminal 12 aa]
target: Saccharomyces cerevisiae
protein stability index: 0.693

residue_codes: ASNGSIFQFSSP [REC104 C-terminal 12 aa]
target: Saccharomyces cerevisiae
protein stability index: 0.718

residue_codes: RVPQSRSFGNLR [NUM1 C-terminal 12 aa]
target: Saccharomyces cerevisiae
protein stability index: 0.746

residue_codes: SKVNSTRLVSRK [KAR3 C-terminal 12 aa]
target: Saccharomyces cerevisiae
protein stability index: 0.723

residue_codes: TPTCQDPSLTEV [YJR038C C-terminal 12 aa]
target: Saccharomyces cerevisiae
protein stability index: 0.69
